- System Under Test: human sphingosine-1-phosphate receptor 1 (S1P1) (Homo sapiens (Human))
- Test Method Notes: Inhibition of cAMP production (HTRF cAMP HiRange), S1P1 CHO-K1 cells
- Type: cell-based
- Reported Conditions: inhibition of cAMP production, S1P1 CHO-K1 cells
- Sequence (P21453 whole entry, looked up): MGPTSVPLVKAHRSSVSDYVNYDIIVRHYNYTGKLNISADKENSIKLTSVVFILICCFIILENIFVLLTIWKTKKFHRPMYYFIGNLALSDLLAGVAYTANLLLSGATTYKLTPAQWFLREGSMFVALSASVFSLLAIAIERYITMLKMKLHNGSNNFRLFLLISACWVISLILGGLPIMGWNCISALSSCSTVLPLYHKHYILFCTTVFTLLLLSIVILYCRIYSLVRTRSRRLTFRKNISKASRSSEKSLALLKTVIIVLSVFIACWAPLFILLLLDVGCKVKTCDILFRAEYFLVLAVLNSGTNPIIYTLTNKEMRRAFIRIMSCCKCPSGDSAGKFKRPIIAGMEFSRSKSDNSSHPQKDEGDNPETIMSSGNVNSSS
Exercise: state measured hS1P1 cAMP pEC50 for each of the compounds provided.

CCC1(CC)CC(=O)c2cc(-c3nc(-c4ccc(Cl)cc4)no3)ccc2O1 [Compound 68]	<6.5

For each of the compounds below, note its hS1P1 cAMP pEC50.
1. CCC1(CC)CC(=O)c2cc(-c3nc(-c4cccs4)no3)ccc2O1 [Compound 467]
2. Cc1cnc(-c2noc(-c3ccc4c(c3)nnn4C(C)C)n2)cn1 [Compound 157]
3. Clc1ncccc1-c1noc(-c2ccc3c(c2)nnn3C2CCCC2)n1 [Compound 198]
4. Cc1ccccc1-c1noc(-c2ccc3c(c2)nnn3C(C)C)n1 [Compound 293]
5. CC(C)(O)Cn1nnc2cc(-c3nc(-c4cccc5cc[nH]c45)no3)ccc21 [Compound 577]

1: >6.5; 2: <6.5; 3: >6.5; 4: >6.5; 5: <6.5

Give hS1P1 cAMP pEC50 for each of the items listed below.
1. CC(C)(O)Cn1nnc2cc(-c3nc(-c4cocn4)no3)ccc21 [Compound 570]
2. COc1ccc(-c2nc(-c3ccc4c(c3)nnn4C3CCCC3)no2)cc1OC [Compound 275]

1: <6.5; 2: <6.5

// recorded hS1P1 cAMP pEC50 for CC(C)n1nnc2cc(-c3nc(-c4ccccc4N)co3)ccc21 [Compound 438] : >6.5

====

- System Under Test: human sphingosine-1-phosphate receptor 1 (S1P1) (Homo sapiens (Human))
- Test Method Notes: β-Arrestin2 recruitment assay (PathHunter), S1P1 CHO-K1 cells
- Assay type: cell-based
- Reported Conditions: β-arrestin2 recruitment, S1P1 CHO-K1 cells
- Sequence (P21453 whole entry, looked up): as above
- Sequence (P32121 whole entry partner, looked up): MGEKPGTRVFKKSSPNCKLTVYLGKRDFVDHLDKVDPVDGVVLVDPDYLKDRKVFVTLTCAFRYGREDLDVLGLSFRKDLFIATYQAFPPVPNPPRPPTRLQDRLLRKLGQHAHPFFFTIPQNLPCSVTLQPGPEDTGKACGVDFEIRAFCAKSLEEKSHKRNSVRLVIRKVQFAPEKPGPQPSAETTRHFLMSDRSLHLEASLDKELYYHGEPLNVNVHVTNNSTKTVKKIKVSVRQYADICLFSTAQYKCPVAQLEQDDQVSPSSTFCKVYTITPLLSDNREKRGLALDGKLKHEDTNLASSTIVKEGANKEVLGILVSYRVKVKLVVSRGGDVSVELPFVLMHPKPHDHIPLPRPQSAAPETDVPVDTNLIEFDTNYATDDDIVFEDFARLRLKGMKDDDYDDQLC
I'd be grateful if you could share measured hS1P1 B-arrestin2 pEC50 for these entries.

Before answering, review these 3 worked examples.
CCC1(CC)CC(=O)c2cc(-c3nc(-c4ccoc4)no3)ccc2O1 [Compound 495]	>5
Cc1ccncc1-c1noc(-c2ccc3nnn(C(C)C)c3c2)n1 [Compound 264]	<5
CCC1(CC)CC(=O)c2cc(-c3nc(-c4ccncc4OC)no3)ccc2O1 [Compound 212]	>5

Hey, quick one: what's hS1P1 B-arrestin2 pEC50 for each of these?
1. Cc1ccsc1-c1noc(-c2ccc3c(c2)nnn3C2CCCC2)n1 [Compound 46]
2. O=C1CC2(CCCCC2)Oc2ccc(-c3nc(-c4cccnc4)no3)cc21 [Compound 41]
3. CC(C)n1ccc2cc(-c3nsc(-c4ccccc4F)n3)ccc21 [Compound 380]

1: >5; 2: <5; 3: <5

Count: 5. Required value per item: hS1P1 B-arrestin2 pEC50.
1. CC(C)n1nnc2cc(-c3noc(C4CCOCC4)n3)ccc21 [Compound 89]
2. Cc1nccnc1-c1nc(-c2ccc3c(c2)nnn3CC(C)(C)CO)no1 [Compound 540]
3. Cc1oc(-c2ccc3c(c2)nnn3C(C)C)nc1-c1ccc(Cl)cc1 [Compound 50]
4. CC(C)n1nnc2cc(-c3nc(-c4cccs4)co3)ccc21 [Compound 459]
5. COc1ccc(-c2nc(-c3ccc4c(c3)nnn4C(C)(C)CO)no2)c(C)c1 [Compound 610]

1. <5
2. <5
3. <5
4. <5
5. <5

====

- System Under Test: UniProt:Q99500
- Sequence (Q99500 whole entry): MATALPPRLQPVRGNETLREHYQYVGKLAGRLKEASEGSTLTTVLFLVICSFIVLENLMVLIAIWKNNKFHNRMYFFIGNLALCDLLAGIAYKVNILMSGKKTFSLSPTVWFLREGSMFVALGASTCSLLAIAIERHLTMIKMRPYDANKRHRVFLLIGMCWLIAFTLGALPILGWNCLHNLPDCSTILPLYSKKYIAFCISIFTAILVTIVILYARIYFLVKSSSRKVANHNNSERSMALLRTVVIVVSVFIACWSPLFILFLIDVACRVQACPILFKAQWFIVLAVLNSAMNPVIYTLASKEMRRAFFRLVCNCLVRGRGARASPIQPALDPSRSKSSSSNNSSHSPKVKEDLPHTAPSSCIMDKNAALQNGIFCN
- Test Method Notes: Inhibition of cAMP production (HTRF), S1P3 CHO-K1 cells
- Type: cell-based
- Reported Conditions: inhibition of cAMP production, hS1P3
I'd be grateful if you could share measured hS1P3 cAMP pEC50 for these entries.

Would you be so kind as to report hS1P3 cAMP pEC50 for each listed record?
1. COc1ccc(-c2noc(-c3ccc4c(c3)nnn4CC(C)(C)O)n2)c(C)c1
2. CC(C)n1nnc2cc(-c3nc(-c4ccncc4C(F)(F)F)no3)ccc21
3. CC(C)n1nnc2cc(-c3nc(-c4cccc5c4OCO5)no3)ccc21
4. CCC1(CC)CC(=O)c2cc(-c3nc(-c4ccnc(O)c4)no3)ccc2O1
5. CCC1(CC)CC(=O)c2cc(-c3nc(-c4ccc5[nH]c(=O)oc5c4)no3)ccc2O1
6. CCC1(CC)CC(=O)c2cc(-c3nc(-c4cccnc4OC)no3)ccc2O1
7. CC(C)Nc1ccc(-c2nc(-c3ccc4c(c3)NC(=O)C4)no2)cc1C#N
8. COc1ccccc1-c1coc(-c2ccc3c(c2)nnn3C(C)C)n1

1: <5.0; 2: <5.0; 3: <5.0; 4: <5.0; 5: <5.0; 6: <5.0; 7: <5.0; 8: <5.0

Okay, here is my list. What is hS1P3 cAMP pEC50 for each of these?
1. CCC1(CC)CC(=O)c2cc(-c3nc(-c4ccccc4Cl)no3)ccc2O1
2. N#Cc1cc(-c2nc(-c3ccc4oc(=O)[nH]c4c3)no2)ccc1NCC1CC1
3. Cc1ccccc1-c1noc(-c2ccc3c(c2)nnn3C(C)C)n1
4. CCC1(CC)CC(=O)c2cc(-c3nc(-c4cccnc4)no3)ccc2O1
5. Cc1ccccc1-c1nc(-c2ccc3c(c2)nnn3C(C)C)no1
6. COc1ccccc1-c1nc(-c2ccc3c(c2)nnn3C(C)C)no1
7. CCC1(CC)CC(=O)c2cc(-c3nc(-c4ccc(C(=O)NC)cc4)no3)ccc2O1

[">5.0", ">5.0", "<5.0", "<5.0", "<5.0", "<5.0", "<5.0"]

// each compound listed below needs its hS1P3 cAMP pEC50
1. CC(C)n1nnc2cc(-c3nc(-c4cccc5c4OCCC5)no3)ccc21
2. Cc1ccncc1-c1noc(-c2ccc3c(c2)nnn3C2CCC2)n1
3. C=CCNc1ccc(-c2nc(-c3cn[nH]c3)no2)cc1C#N

1: >5.0; 2: <5.0; 3: >5.0

====

- System Under Test: human sphingosine-1-phosphate receptor 1 (S1P1) (Homo sapiens (Human))
- Test Method Notes: β-Arrestin2 recruitment assay (PathHunter), S1P1 CHO-K1 cells
- Type: cell-based
- Reported Conditions: β-arrestin2 recruitment, S1P1 CHO-K1 cells
- Procedure: Stable clonal Chinese hamster ovary K1 (CHO-K1) cells co-expressing EA-β-arrestin2 and the human sphingosine-1-phosphate receptor 1 (NM_001400, S1P1) with a C-terminal Prolink™ tag were purchased from DiscoverX corporation (Cat #: 93-0207C2). […] Agonist-promoted β-arrestin2 recruitment to the sphingosine-1-phosphate 1 receptor was determined using the β-arrestin PathHunter®) Detection kit (DiscoverX Corporation, Cat #: 93-0001). […]
Readout: hS1P1 B-arrestin2 pEC50

Brc1ccccc1-c1nc(-c2ccc3c(c2)nnn3CC2CC2)no1	>5
CC(C)n1ccc2cc(-c3noc(-c4ccncc4)n3)ccc21	>5
N#Cc1cc(-c2nnc(-c3ccc4c(c3)CCC(=O)N4)o2)ccc1NCC(F)F	>5
CCC1(CC)CC(=O)c2cc(-c3ncc(-c4ccccn4)cn3)ccc2O1	<5
CCC1(CC)CC(=O)c2cc(-c3nc(-c4cccnc4F)no3)ccc2O1	>5
CCC1(CC)CC(=O)c2cc(-c3nc(-c4cncnc4)no3)ccc2O1	>5
c1ccc(Oc2ccc(-c3noc(-c4ccc5c(c4)nnn5C4CC4)n3)cc2)cc1	<5
COc1ccccc1-c1nc(-c2ccc3c(c2)nnn3CC(C)(C)CO)no1	<5
COc1cccc2oc(-c3ccc4c(c3)nnn4C(C)C)nc12	<5
Cc1occc1-c1noc(-c2ccc3c(c2)nnn3CC(C)(C)O)n1	<5

// for each compound below, give its hS1P1 B-arrestin2 pEC50
1. CCC1(CC)CC(=O)c2cc(-c3nc(-c4ccncc4C)no3)ccc2O1
2. COc1cc(NC(C)=O)ccc1-c1noc(-c2ccc3nonc3c2)n1
3. CCC1(CC)CC(=O)c2cc(-c3nc(-c4cncc(C(N)=O)c4)no3)ccc2O1
4. CC(C)n1ncc2cc(-c3nc(-c4cccc5c4OCO5)no3)ccc21
5. CC(C)Cn1nnc2cc(-c3nc4ccncc4o3)ccc21
6. CCC1(CC)CC(=O)c2cc(-c3nc(-c4cccnc4C(F)(F)F)no3)ccc2O1

1. >5
2. <5
3. >5
4. >5
5. <5
6. >5

# batch: return hS1P1 B-arrestin2 pEC50 for each of the 2 compounds below
1. N#Cc1cc(-c2nnc(-c3ccc4[nH]c(=O)oc4c3)o2)ccc1NCCF
2. COc1ccc(-c2nc(-c3ccc4c(c3)nnn4C3CCCC3)no2)cc1OC

[">5", "<5"]

====

Provide the reported hS1P1 B-arrestin2 pEC50 of each item.
- System Under Test: human sphingosine-1-phosphate receptor 1 (S1P1) (Homo sapiens (Human), UniProt P21453)
- Test Method Notes: β-Arrestin2 recruitment assay (PathHunter), S1P1 CHO-K1 cells
- Assay type: cell-based
- Reported Conditions: β-arrestin2 recruitment, S1P1 CHO-K1 cells

CC(C)n1nnc2cc(-c3nc4ccncc4o3)ccc21	<5
N#Cc1cc(-c2nc(-c3ccc4sc(N)nc4c3)no2)ccc1NCC1CC1	>5
CC1(C)CC(=O)c2cc(-c3nc(-c4cccnc4)no3)ccc2O1	>5
CC(C)n1nnc2cc(-c3nc(-c4ccccc4Br)co3)ccc21	>5
CCC1(CC)CC(=O)c2cc(-c3nc(-c4sccc4OC)no3)ccc2O1	>5
CC(C)Nc1ccc(-c2nnc(-c3ccc4[nH]cnc4c3)o2)cc1C#N	>5
CCC1(CC)CC(=O)c2cc(-c3nc(-c4cccc(O)c4)no3)ccc2O1	<5
CCC1(CC)CC(=O)c2cc(-c3nc(-c4ccncc4F)no3)ccc2O1	<5

Next compound, hS1P1 B-arrestin2 pEC50 to be filled in.
Record summary for "CC(C)n1nnc2cc(-c3noc(-c4cccc5c4CCC5=O)n3)ccc21" : reported hS1P1 B-arrestin2 pEC50 = >5

Where these numbers come from: patent US11912693B2
